DC50 by entry:
System tested: KRAS G12D (Homo sapiens, UniProt P01116, G12D)
Construct: host or cells: AsPC-1 human pancreatic cancer cells
Sequence (P01116 1-188 isoform P01116-2 G12D): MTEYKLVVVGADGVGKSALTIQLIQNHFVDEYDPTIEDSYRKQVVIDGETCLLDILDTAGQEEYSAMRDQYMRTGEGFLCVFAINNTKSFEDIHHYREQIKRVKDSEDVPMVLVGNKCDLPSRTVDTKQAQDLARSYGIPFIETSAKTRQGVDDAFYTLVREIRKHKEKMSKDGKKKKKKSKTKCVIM
Test protocol: Test Example 1-2: KRAS degradation action in AsPC-1, Cell ELISA
Type: cell-based
Condition parameters: AsPC-1 cells, overnight treatment, corrected with β-actin, 0% = 10 μM Example No. 26 (Example No. 8 for Example Nos. 74 and 75)
Quantity kind: DC50 (µM)

structure_notation=Cc1ncsc1-c1ccc([C@@H](CO)NC(=O)[C@@H]2C[C@@H](O)CN2C(=O)[C@H](C(C)C)n2cc(-c3ccc(COc4c(-c5c(C)c(F)cc6[nH]ncc56)c(C5CC5)cc5c(N6C[C@@H]7C[C@H]6CN7)nc(OC6CCOCC6)nc45)cc3)nn2)cc1 quantitative_result=1.39
structure_notation=Cc1ncsc1-c1ccc([C@H](CO)NC(=O)[C@@H]2C[C@@H](O)CN2C(=O)[C@H](C(C)C)n2cc(-c3ccc(COc4c(-c5c(C)c(F)cc6[nH]ncc56)c(C5CC5)cc5c(N6C[C@@H]7C[C@H]6CN7)nc(OC6CCOCC6)nc45)cc3F)nn2)cc1 quantitative_result=0.015
structure_notation=Cc1ncsc1-c1ccc([C@H](CO)NC(=O)[C@@H]2C[C@@H](O)CN2C(=O)[C@H](C(C)C)n2cc(-c3ccc(COc4c(-c5c(C)c(F)cc6[nH]ncc56)c(C5CC5)cc5c(N6C[C@@H]7C[C@H]6CN7)nc(O[C@H]6CCN(CCO)C6)nc45)cc3)nn2)cc1 quantitative_result=0.138

---

System tested: KRAS G12D (Homo sapiens, UniProt P01116, G12D)
Construct: host or cells: AsPC-1 human pancreatic cancer cells
Test protocol: Test Example 1-2: KRAS degradation action in AsPC-1, Cell ELISA
Assay type: cell-based
Condition parameters: AsPC-1 cells, overnight treatment, corrected with β-actin, 0% = 10 μM Example No. 26 (Example No. 8 for Example Nos. 74 and 75)
# DC50 listing for each entry below
Quantity kind: DC50

compound="Cc1ncsc1-c1ccc([C@H](CO)NC(=O)[C@@H]2C[C@@H](O)CN2C(=O)[C@H](C(C)C)n2cc(-c3ccc(COc4c(-c5c(C)c(F)cc6[nH]ncc56)c(C5CC5)cc5c(N6C[C@@H]7C[C@H]6CN7)nc(OC[C@@H]6CCOC6)nc45)cc3)nn2)cc1 [Example 53]" result="8 nM"
compound=CO[C@@H](C)COc1nc(N2C[C@@H]3C[C@H]2CN3)c2cc(C3CC3)c(-c3c(C)c(F)cc4[nH]ncc34)c(OCc3ccc(-c4cn([C@H](C(=O)N5C[C@H](O)C[C@H]5C(=O)N[C@@H](CO)c5ccc(-c6scnc6C)cc5)C(C)C)nn4)cc3)c2n1 result="4 nM"
compound=Cc1c(F)cc2[nH]ncc2c1-c1c(C2CC2)cc2c(N3C[C@@H]4C[C@H]3CN4)nc(OC3CCOCC3)nc2c1OCc1ccc(-c2cn([C@H](C(=O)N3C[C@H](O)C[C@H]3C(=O)N[C@@H](CO)c3cccc(F)c3)C(C)C)nn2)cc1 result="70 nM"
compound=CO[C@@H](C)COc1nc(N2C[C@@H]3C[C@H]2CN3)c2cc(C3CC3)c(-c3c(C)c(F)cc4[nH]ncc34)c(OCc3ccc(-c4cn([C@H](C(=O)N5C[C@H](O)C[C@H]5C(=O)N[C@@H](CO)c5ccc(N6CCOC6=O)cc5)C(C)C)nn4)cc3)c2n1 result="45 nM"

Reference for the values: patent US20250340561A1
